Hi there, I'd appreciate the recorded GI50 for every entry that follows.
- Test system: NCI-H23
- PROTOCOL DETAILS: NCI tumour cell line growth inhibition, 48 h
Activity calls are given as the source filed them. No stated cut-off is given here; in the data, active = GI50 up to about 1.1 µM and inactive = higher.

Entry CC(=O)Nc1ccc(C2CC(c3ccc([N+](=O)[O-])cc3)=Nc3ccccc3S2)cc1 (stereo unspecified) , system NCI-H23: what GI50 was measured?
> 10 µM (inactive)

Entry "O=C1NC(=S)N/C1=C\c1ccc(Sc2ccccc2C(=O)O)s1" , system NCI-H23: what GI50 was measured?
> 100 µM (inactive)

Entry "S=C(Nc1ccccc1)N(/N=C/C=C/c1ccccc1)c1nnc(-c2ccccc2)c(-c2ccccc2)n1" , system NCI-H23: what GI50 was measured?
19.6 µM (inactive)

Entry "COc1ccc(/C=N/n2c(Cc3ccc(Cl)cc3)n[nH]c2=O)cc1" , system NCI-H23: what GI50 was measured?
22 µM (inactive)

Entry O=C1NNC2NC(=O)C3(NN2C1=O)c1ccccc1-c1ccccc13 (stereo unspecified) , system NCI-H23: what GI50 was measured?
> 100 µM (inactive)

Entry "CCc1n[nH]c(=O)n1/N=C/c1ccc(C)cc1" , system NCI-H23: what GI50 was measured?
> 100 µM (inactive)

###

Hi there, I'd appreciate the recorded GI50 for every entry that follows.
- Test system: COLO 205
- PROTOCOL DETAILS: NCI tumour cell line growth inhibition, 48 h
Activity calls are given as the source filed them. No stated cut-off is given here; in the data, active = GI50 up to about 1.1 µM and inactive = higher. Where a SMILES comes first, the peptide text is derived from it. [ ]: non-standard residue; d: D form. Phe(4-NO2) = N[CH](Cc1ccc([N+](=O)[O-])cc1)C(=O)O

Entry "CCOP(=O)(OCC)/C(C#N)=C/c1cnc(-c2ccccc2)[nH]1" , system COLO 205: what GI50 was measured?
> 100 µM (inactive)

Entry "COc1cc(/C=N/N=C(\N)NO)c([N+](=O)[O-])cc1OC" , system COLO 205: what GI50 was measured?
36.1 µM (inactive)

Entry "Cn1c(-c2ccccc2)cc(-c2cccs2)c1-c1cccs1" , system COLO 205: what GI50 was measured?
82.6 µM (inactive)

Entry "O=C1c2c(F)c(F)c(F)c(F)c2SC2=Nc3cccc4cccc(c34)N12" , system COLO 205: what GI50 was measured?
9.35 µM (inactive)

Entry "CCN(CC)c1ccc2cc(C(=O)Nc3ccccn3)c(=N)oc2c1" , system COLO 205: what GI50 was measured?
> 100 µM (inactive)

Entry CC(NC(=O)C(Cc1ccc([N+](=O)[O-])cc1)NC(=O)C(N)CCCCN)C(=O)NC(Cc1ccc([N+](=O)[O-])cc1)C(N)=O (stereo not drawn) (H-K[Phe(4-NO2)]A[Phe(4-NO2)]-NH2; configuration not given here) , system COLO 205: what GI50 was measured?
> 52.7 µM (inactive)

Entry "CCCCOC(=O)NC(=O)c1cn(CCSCCOC(=O)NCCCCCCNC(=O)OCCSCCn2cc(C(=O)NC(=O)OCCCC)c(=O)[nH]c2=O)c(=O)[nH]c1=O" , system COLO 205: what GI50 was measured?
> 100 µM (inactive)

Entry "CC(=O)Nc1ccccc1C=C1c2ccccc2-c2ccccc21" , system COLO 205: what GI50 was measured?
78.2 µM (inactive)

###

- Tested on: SK-MEL-5
- PROTOCOL DETAILS: NCI tumour cell line growth inhibition, 48 h
Active and inactive are the calls of the source. Cut-off read from the data, not from the text of the source: active = GI50 up to about 1.1 µM and inactive = higher.
PROPERTY: GI50

What value of GI50 has been reported for the following molecule? "COc1ccc(-c2nc3c(C(=O)NCCN(C)C)cccc3c3ccccc23)cc1"
1.74 µM (inactive)

What value of GI50 has been reported for the following molecule? C=CCC1OC(C)(C)Oc2ccc(OCOCCOC)cc21 (stereo not given)
> 100 µM (inactive)

What value of GI50 has been reported for the following molecule? "CCOC(=O)/C(=C/NC(=S)Nc1c(CC)cccc1C(C)(C)C)C(=O)c1ccccc1"
> 100 µM (inactive)

What value of GI50 has been reported for the following molecule? "Oc1cc(-c2ccccc2)nc2ncccc12"
0.0778 µM (active)

What value of GI50 has been reported for the following molecule? OC1C=C2C3CN(Cc4cc5c(cc43)OCO5)[C@H]2C[C@@H]1O (stereo not given in full)
3.32 µM (inactive)

What value of GI50 has been reported for the following molecule? "COc1ccc(/C=C/C(=O)c2ccccc2)cc1OC"
16.8 µM (inactive)

What value of GI50 has been reported for the following molecule? CC(C)(C)C1=C(Br)C(OC(=O)C(F)(F)F)(C(C)(C)C)OP1(=O)c1ccccc1 (stereo not given)
65.3 µM (inactive)

What value of GI50 has been reported for the following molecule? "COc1cc(/C=N/N=C(\N)NO)c([N+](=O)[O-])cc1OC"
18 µM (inactive)

What value of GI50 has been reported for the following molecule? COC(=O)C1(O)CC(=O)CCC1c1ccc(OC)cc1 (stereo not given)
> 100 µM (inactive)

What value of GI50 has been reported for the following molecule? "CCOC(=O)C1=C(N)N2C(=N[C@H]3CCCC[C@@H]32)N=C1"
> 100 µM (inactive)

What value of GI50 has been reported for the following molecule? COc1cccc(CC2C(=O)N/C(=N\C(C)=O)N2C)c1OC(C)=O (stereo not given)
> 100 µM (inactive)

What value of GI50 has been reported for the following molecule? "Cc1ccc(/C=C2/NC(=S)SC2=O)cc1"
32.1 µM (inactive)

What value of GI50 has been reported for the following molecule? "O=C(/C=C/c1ccccc1)/C=N/N1C(=S)N(c2ccccc2)C(=N\c2ccccc2)/C1=N/c1ccccc1"
> 100 µM (inactive)

What value of GI50 has been reported for the following molecule? "CN(C)c1ccc(/C=C/c2ccnc3ccccc23)cc1"
75.9 µM (inactive)

What value of GI50 has been reported for the following molecule? "S=c1c2cn[nH]c2nc2scc(-c3ccc(Cl)cc3)n12"
17.6 µM (inactive)

What value of GI50 has been reported for the following molecule? "O=C(N[C@H](CO)[C@H](O)c1ccc([N+](=O)[O-])cc1)C(Cl)Cl"
> 100 µM (inactive)

What value of GI50 has been reported for the following molecule? "CN(C)CCCn1c2c3ccccc3ccc2c2oc(=O)c3ccccc3c21"
9.53 µM (inactive)

What value of GI50 has been reported for the following molecule? CC1(C)CC[C@]2(C(=O)O)[C@H](O)C[C@]3(C)C(=CC[C@@H]4[C@@]5(C)CC[C@H](OC6OC(C(=O)O)C(O)C(O)C6O)C(C)(C)[C@@H]5CC[C@]43C)[C@@H]2C1 (stereo not given in full)
> 100 µM (inactive)

What value of GI50 has been reported for the following molecule? "c1ccc(-c2cc(-c3ccncc3)cc(-c3ccncc3)n2)cc1"
> 100 µM (inactive)

What value of GI50 has been reported for the following molecule? "Nc1ccccc1-c1noc(=O)[nH]1"
> 100 µM (inactive)

What value of GI50 has been reported for the following molecule? O=C(O)CC1OCC=C2C[N+]3([O-])CCC45c6ccccc6NC4C1C2CC53 (stereo not given)
> 100 µM (inactive)

What value of GI50 has been reported for the following molecule? "COc1cc2ccc(CC(=O)O)cc2cc1OC"
> 100 µM (inactive)

What value of GI50 has been reported for the following molecule? "CCOC(CN(C)C(=O)OCC(Cl)(Cl)Cl)OCC"
33.7 µM (inactive)

What value of GI50 has been reported for the following molecule? COC(=O)CNC(=O)C(CSC(=O)OCC1c2ccccc2-c2ccccc21)NC(=O)CCC(NC(=O)OCC1c2ccccc2-c2ccccc21)C(=O)OC (stereo not given)
78.7 µM (inactive)

What value of GI50 has been reported for the following molecule? "COC(=O)c1ccc(NCC2=CC(=O)c3ccccc3C2=O)cc1"
11.7 µM (inactive)

What value of GI50 has been reported for the following molecule? "COc1cc2c(cc1OCCCOc1cc3c(cc1OC)C(=O)N1CCC[C@H]1C(=O)N3)N=C[C@@H]1CCCN1C2=O"
12.5 µM (inactive)

What value of GI50 has been reported for the following molecule? "C/C(=N\Nc1ccc([N+](=O)[O-])cc1[N+](=O)[O-])c1sc(-n2nc(-c3ccccc3)cc2-c2ccccc2)nc1C"
34.4 µM (inactive)

What value of GI50 has been reported for the following molecule? "CCCc1cc(=O)oc2c3c(c4c(c12)OC(C)(C)CC4)O[C@H](C)[C@@H](C)[C@H]3O"
15.1 µM (inactive)

What value of GI50 has been reported for the following molecule? "COC(=O)C1=C(C)NC(C)=C(C(=O)OC)C1c1cccc(N=O)c1"
16.3 µM (inactive)

What value of GI50 has been reported for the following molecule? "S=C(Nc1ccccc1)N(/N=C/C=C/c1ccccc1)c1nnc(-c2ccccc2)c(-c2ccccc2)n1"
30.8 µM (inactive)

What value of GI50 has been reported for the following molecule? CCN(CC)CCCC(C)NC(=O)c1ccc2c(c1)C(=O)c1ccccc1C2=O (stereo not given)
14.5 µM (inactive)

What value of GI50 has been reported for the following molecule? C1=C(c2ccccc2)C(N2CCOCC2)Oc2ccccc21 (stereo not given)
> 100 µM (inactive)

What value of GI50 has been reported for the following molecule? "Cc1ccc(NC(=O)CC(=O)n2nc(C)c(/N=N/c3ccccc3C(=O)O)c2C)cc1"
> 100 µM (inactive)

What value of GI50 has been reported for the following molecule? "CCCOc1ccc(-c2nc(-c3ccc(/N=C/c4ccc(N(CCOS(C)(=O)=O)CCOS(C)(=O)=O)cc4C)cc3)cs2)cc1"
27 µM (inactive)

What value of GI50 has been reported for the following molecule? FC(F)(F)c1ccccc1C1SCc2nc3ccccc3n21 (stereo not given)
> 10 µM (inactive)

What value of GI50 has been reported for the following molecule? "O=C1CCc2cc3c(cc21)CC1(Cc2ccccc2C1)C3"
5.77 µM (inactive)

What value of GI50 has been reported for the following molecule? O=C(c1ccccc1)c1ccc2c(c1)N=C(c1ccc(Cl)c(Cl)c1)CC(c1ccc3ccccc3c1)N2 (stereo not given)
> 100 µM (inactive)

What value of GI50 has been reported for the following molecule? COc1ccc2oc(C(=O)N3CC(CCl)c4ccc([N+](=O)[O-])cc43)cc2c1 (stereo not given)
> 100 µM (inactive)

What value of GI50 has been reported for the following molecule? "O=C1NC2=NOC(=O)NC2=NO1"
> 200 µM (inactive)

What value of GI50 has been reported for the following molecule? C[C@]12CC[C@@H]3c4cc(C=O)c(OCc5ccccc5)cc4CC[C@H]3[C@@H]1CCC2OCc1ccccc1 (stereo not given in full)
> 100 µM (inactive)
